This collection of values is drawn from paper PMC9169360.

Below, each of the compounds is paired with its reported pIC50 value.
Target Desc: norepinephrine transporter (NET) (Homo sapiens, UniProt P23975)
Construct: cells naturally expressing NET; host or cells: SK-N-SH human neuroblastoma cells
Sequence (P23975 whole entry): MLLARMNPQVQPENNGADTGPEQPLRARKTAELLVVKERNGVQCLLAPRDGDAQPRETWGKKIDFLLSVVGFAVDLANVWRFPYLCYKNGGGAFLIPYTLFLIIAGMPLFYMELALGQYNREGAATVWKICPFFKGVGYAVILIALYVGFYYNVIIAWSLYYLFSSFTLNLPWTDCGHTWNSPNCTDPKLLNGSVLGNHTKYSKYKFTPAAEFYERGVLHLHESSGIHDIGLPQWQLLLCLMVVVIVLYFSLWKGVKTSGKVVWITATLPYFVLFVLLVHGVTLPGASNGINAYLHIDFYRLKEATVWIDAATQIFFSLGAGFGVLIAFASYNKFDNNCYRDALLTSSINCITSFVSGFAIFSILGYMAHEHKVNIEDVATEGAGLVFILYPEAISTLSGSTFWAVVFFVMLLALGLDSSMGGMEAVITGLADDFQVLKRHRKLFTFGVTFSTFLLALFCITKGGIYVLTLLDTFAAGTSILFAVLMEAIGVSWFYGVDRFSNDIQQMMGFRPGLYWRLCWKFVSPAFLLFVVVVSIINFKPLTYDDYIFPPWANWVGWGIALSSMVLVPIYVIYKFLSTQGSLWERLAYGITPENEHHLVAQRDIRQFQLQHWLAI
Protocol Description: Competitive cell uptake assay against 3H-norepinephrine in SK-N-SH human neuroblastoma cells
Type: cell-based
Experimental Conditions: SK-N-SH cells, 60 min, 37 °C, mean ± SD, n = 4; read-out: IC50, competitive cell uptake affinity against 3H-NE
Formally, pIC50 is defined as -log10 of the concentration c, with c in mol/L.

>  <Compound>
N=C(N)NCCc1ccc(OCCCF)c(F)c1

>  <pIC50>
6.38

$$$$
>  <Compound>
N=C(N)NCCc1ccc(F)c(O)c1 [4F-MHPG, 4-fluoro-3-hydroxyphenethylguanidine]

>  <pIC50>
5.56

$$$$
>  <Compound>
N=C(N)NCc1cccc(I)c1 [MIBG, metaiodobenzylguanidine, reference compound]

>  <pIC50>
5.76

$$$$
>  <Compound>
N=C(N)NCCc1ccc(O)c(F)c1 [3F-PHPG, 3-fluoro-4-hydroxyphenethylguanidine]

>  <pIC50>
6.11

$$$$

From here, focus on the item given below.
Which pIC50 is reported with norepinephrine transporter (NET) (Homo sapiens, UniProt P23975) for this entry: `N=C(N)NCc1ccc(OCCCF)c(Br)c1` ? 5.64
